Just for reference, ChEMBL document CHEMBL1149498 is where these values come from.

biological target: Glutamate receptor ionotropic, AMPA (Rattus norvegicus, UniProt P19490+P19491+P19492+P19493); experiment: Antagonist activity against rat brain AMPA receptor expressed in Xenopus laevis oocyte assessed as inhibition of kainate-induced current by two electrode voltage clamp method at holding potential -40 mV
readout name: IC50 (µM)

> print(dat)
                                smiles.code  readout.name  unit.symbol  recorded.number
1  CCCC(=O)N[C@@H](Cc1ccc(O)cc1)C(=O)NCCCCNCCCCCCCN          IC50           µM            0.176

###

target: Glutamate receptor 1 (Rattus norvegicus); experiment: Antagonist activity against rat GluR1 flop expressed in Xenopus laevis oocyte assessed as inhibition of glutamate-induced current at holding potential -80 mV by two electrode voltage clamp method; type: functional
Sequence (P19490 whole entry): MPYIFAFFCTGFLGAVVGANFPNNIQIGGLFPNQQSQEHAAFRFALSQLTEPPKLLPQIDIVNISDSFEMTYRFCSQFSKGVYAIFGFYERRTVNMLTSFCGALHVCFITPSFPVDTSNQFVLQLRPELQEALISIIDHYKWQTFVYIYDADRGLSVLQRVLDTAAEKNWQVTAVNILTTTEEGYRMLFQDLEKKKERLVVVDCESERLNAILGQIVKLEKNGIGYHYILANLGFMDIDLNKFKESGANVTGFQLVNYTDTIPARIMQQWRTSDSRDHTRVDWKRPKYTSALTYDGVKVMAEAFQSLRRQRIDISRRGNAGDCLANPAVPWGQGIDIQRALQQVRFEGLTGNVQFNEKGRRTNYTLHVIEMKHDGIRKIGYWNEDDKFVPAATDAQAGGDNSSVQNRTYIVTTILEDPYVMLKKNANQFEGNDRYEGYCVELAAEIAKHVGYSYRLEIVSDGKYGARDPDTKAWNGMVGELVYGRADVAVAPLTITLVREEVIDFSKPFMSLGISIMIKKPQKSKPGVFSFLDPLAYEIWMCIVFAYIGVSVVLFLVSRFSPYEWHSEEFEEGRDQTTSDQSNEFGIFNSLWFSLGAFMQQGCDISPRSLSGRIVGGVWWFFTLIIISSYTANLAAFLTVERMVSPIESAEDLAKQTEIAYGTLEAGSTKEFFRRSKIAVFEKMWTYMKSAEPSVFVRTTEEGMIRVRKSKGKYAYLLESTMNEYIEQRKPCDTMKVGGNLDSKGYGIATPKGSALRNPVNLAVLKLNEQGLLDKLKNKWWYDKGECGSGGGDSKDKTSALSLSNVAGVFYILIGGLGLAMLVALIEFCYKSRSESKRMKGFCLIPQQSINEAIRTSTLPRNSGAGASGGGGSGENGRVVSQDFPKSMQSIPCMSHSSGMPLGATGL
This listing pairs compounds with measured Ki.
readout name: Ki (nM)

> print(dat)
                                smiles.code                               test.target  readout.name  unit.symbol  recorded.number
1  CCCC(=O)N[C@@H](Cc1ccc(O)cc1)C(=O)NCCCCCCCNCCCCCCN  Glutamate receptor 1 (Rattus norvegicus)            Ki           nM              208
2  CCCC(=O)N[C@@H](Cc1ccc(O)cc1)C(=O)NCCCCCNCCCN  Glutamate receptor 1 (Rattus norvegicus)            Ki           nM               63
3  CCCC(=O)N[C@@H](Cc1ccc(O)cc1)C(=O)NCCCCCNCCN  Glutamate receptor 1 (Rattus norvegicus)            Ki           nM              410
4  CCCC(=O)N[C@@H](Cc1ccc(O)cc1)C(=O)NCCCCCCCCCNCCN  Glutamate receptor 1 (Rattus norvegicus)            Ki           nM              410
5  CCCC(=O)N[C@@H](Cc1ccc(O)cc1)C(=O)NCCCNCCCCCCCCN  Glutamate receptor 1 (Rattus norvegicus)            Ki           nM              350
6  CCCC(=O)N[C@@H](Cc1ccc(O)cc1)C(=O)NCCCCCNCCCCN  Glutamate receptor 1 (Rattus norvegicus)            Ki           nM               68
7  CCCC(=O)N[C@@H](Cc1ccc(O)cc1)C(=O)NCCCCCNCCCCCCCCN  Glutamate receptor 1 (Rattus norvegicus)            Ki           nM              330
8  CCCC(=O)N[C@@H](Cc1ccc(O)cc1)C(=O)NCCCCCCCCNCCCN  Glutamate receptor 1 (Rattus norvegicus)            Ki           nM               65
